All figures here come from PubChem BioAssay (NCI).

Test system: HS 578T breast
Assay: NCI tumour cell line growth inhibition, 48 h
So I've got a bunch of molecules here, and I need their TGI values.

For every listed record, write down its TGI.
1. CCC1CCc2nc3sc(C(=O)Nc4ccccc4F)c(N)c3cc2C1 (stereo unspecified)
2. O=C1C(=O)c2cc([N+](=O)[O-])ccc2-c2ccccc21

Reply |
1: > 100 µM; 2: 4.49 µM

---

System: MDA-MB-231 breast
Assay: NCI tumour cell line growth inhibition, 48 h
endpoint.name: GI50

Ask | Determine from records and report GI50 for CCCCCCN(CCCCCC)C(=N)c1ccnc2ccccc12
Reply | 5.13 µM

Ask | Determine from records and report GI50 for CS(=O)(=O)CCNCc1ccc(-c2ccc3ncnc(Nc4ccc(OCc5ccccc5)c(C(F)(F)F)c4)c3c2)o1
Reply | 4.55 µM

Ask | Determine from records and report GI50 for CN1CCN(C(=O)c2ccc(NC(=O)Nc3ccc(N(C)c4ccnc(Nc5ccc(CS(C)(=O)=O)cc5)n4)cc3)cc2)CC1
Reply | > 23.8 µM

Ask | Determine from records and report GI50 for COc1ccc(C(=S)c2cc(OC)c(OC)c(OC)c2)cc1OC(=O)CCl
Reply | 0.0253 µM

Ask | Determine from records and report GI50 for COc1ccc(-c2coc3ncnc(N)c23)cc1
Reply | > 25 µM

For every listed record, write down its GI50.
1. COc1cc2c(c(OC)c1OC)-c1ccc([O-])c(=O)cc1[C@@H](NC(C)=O)CC2.COc1cc2c(c(OC)c1OC)-c1ccc([O-])c(=O)cc1[C@@H](NC(C)=O)CC2.[Cu+2]
2. COc1cccc(-c2nn(-c3ccccc3)cc2-c2ccnc(NCCNS(=O)(=O)c3ccc(C(F)(F)F)cc3)c2)c1
3. CC(=O)O[C@H](C[C@H](C(C)C)N(C)C(=O)[C@@H](NC(=O)[C@H]1CCCCN1C)C(C)C)c1nc(C(=O)N[C@@H](Cc2ccccc2)C[C@H](C)C(=O)O)c(C)s1

Reply |
["3.84 µM", "3.15 µM", "< 0.0025 µM"]

---

Test system: MOLT-4 leukemia
Test: NCI tumour cell line growth inhibition, 48 h
endpoint.name: TGI

Examples with answers:
Ask | Determine from records and report TGI for C[C@]12CCC[C@H](OC=O)C1(O)C[C@H](C(=O)O)CC2 (some centres not stated)
Reply | > 100 µM

Ask | Determine from records and report TGI for CC(=O)CC(=O)N(CCN(C(=O)CC(C)=O)c1ccccc1)c1ccccc1
Reply | > 100 µM

Ask | Determine from records and report TGI for Cc1cc(Cl)ccc1Nc1sc(C(=O)c2cc3cc(Cl)ccc3o2)c(N)c1C#N
Reply | > 100 µM

For every listed record, write down its TGI.
1. O=C1C=C(Nc2ccccc2)c2ncccc2C1=O
2. CC(=O)OCC1OC(n2c(C)c(N=Nc3ccc(C)cc3)c(C)c(C#N)c2=S)C(OC(C)=O)C(OC(C)=O)C1OC(C)=O (configuration not stated)
3. CC1(C)C(O)c2ccccc2OC1N1CCN(C2Oc3ccccc3C(O)C2(C)C)CC1 (configuration not stated)
4. COc1cccc(-c2nn(-c3ccccc3)cc2-c2ccnc(NCCNS(=O)(=O)c3ccc(C(F)(F)F)cc3)c2)c1
5. O=c1c2cccnc2[nH]c2ccc3scnc3c12
6. CCCCCCCCCOC(=S)NC
7. O=C(O)CN1CCNCCN(CC(=O)O)CC1

Reply |
3.78 µM
> 100 µM
> 100 µM
5.48 µM
> 10 µM
46.5 µM
> 100 µM

For every listed record, write down its TGI.
1. CC(=O)c1ccc(-c2oc(-c3ccccc3)cc2-c2ccc3c(c2)OCO3)s1
2. COc1cc2c(c(OC)c1OC)-c1ccc(OC)c(=O)cc1[C@@H](NC(=O)CCl)CC2
3. COc1ccc(C(=S)c2cc(OC)c(OC)c(OC)c2)cc1OC(=O)CCl
4. CCOC(=O)[C@H](CSSc1ncnc2cc[nH]c12)NC(=O)[C@@H](C)c1ccc2cc(OC)ccc2c1
5. CN1C(=O)n2c(nc3ccccc32)C(N=[N+]=[N-])(N=[N+]=[N-])C1=O (configuration not stated)
6. CCCCCCCCCCCCCCCCOP(=O)(O)OP(=O)(O)OCC1OC(n2ccc(N)nc2=O)CC1O (configuration not stated)
7. CCOC(=O)C1Cc2c(ccc(OC)c2OC)C(=O)C1N (configuration not stated)

Reply |
1: > 100 µM; 2: > 100 µM; 3: > 100 µM; 4: > 100 µM; 5: > 100 µM; 6: > 100 µM; 7: > 100 µM

---

Test system: NCI-H522 lung
Test: NCI tumour cell line growth inhibition, 48 h
So I've got a bunch of compounds here, and I need their TGI values.

Ask | Determine from records and report TGI for COC(=O)/C=C\c1ccc2c(c1)CC1(C2)Cc2ccc(/C=C/C(=O)OC)cc2C1 (stereo not drawn)
Reply | > 31.6 µM

Ask | Determine from records and report TGI for Cc1nc(Nc2nnc(-c3cc([N+](=O)[O-])cc([N+](=O)[O-])c3C)o2)sc1C(=O)CC(=O)Cc1nc2ccc(Cl)cc2[nH]c1=O
Reply | > 100 µM

Ask | Determine from records and report TGI for Cc1cc(N(CCC#N)CCC#N)ccc1/C=C1/CN(N2C(=O)/C(=C/c3ccc(N(CCC#N)CCC#N)cc3C)N=C2c2ccccc2)C(c2ccccc2)=N1
Reply | > 100 µM

Ask | Determine from records and report TGI for CCCCCCN(CCCCCC)C(=N)c1ccnc2ccccc12
Reply | 11 µM

Ask | Determine from records and report TGI for COC(=O)C1([C@@H]2C[C@@H](O)[C@]3(C)CC/C=C(\C)CCC[C@H](C)[C@H](O)[C@@H]2O3)CC1
Reply | > 100 µM

For every listed record, write down its TGI.
1. CSc1nc(NC2OCC(OC(C)=O)C(OC(C)=O)C2OC(C)=O)c(N=CC=Nc2c(NC3OCC(OC(C)=O)C(OC(C)=O)C3OC(C)=O)nc(SC)n(C)c2=O)c(=O)n1C (stereo not drawn)
2. CCCCCCCC/C=C\CCCCCCCCNc1ccn(C2OC(COP(=O)(O)OC3CC(n4cc(F)c(=O)[nH]c4=O)OC3CO)C(O)C2O)c(=O)n1 (stereo not drawn)
3. CS(=O)(=O)c1nc(N)nc2nc[nH]c12

Reply |
1: > 100 µM; 2: > 100 µM; 3: > 100 µM

---

Test system: DMS 114 small cell lung
Experiment: NCI tumour cell line growth inhibition, 48 h
endpoint.name: TGI

Examples with answers:
Ask | Determine from records and report TGI for COc1ccc2cc(C(=O)c3ccccc3C(=O)O)ccc2c1
Reply | > 100 µM

Ask | Determine from records and report TGI for CCCC(OCC)(OCC)OCC
Reply | > 100 µM

Ask | Determine from records and report TGI for C[C@]12CCC[C@H](OC=O)C1(O)C[C@H](C(=O)O)CC2 (some centres undefined)
Reply | > 100 µM

Ask | Determine from records and report TGI for O=C(O)C(Cc1cccs1)NC(=O)C(F)(F)F (centres undefined)
Reply | > 100 µM

Ask | Determine from records and report TGI for CCSC(=Nc1ccccc1)SC
Reply | > 100 µM

For every listed record, write down its TGI.
1. N#CN=Nc1cc(Cl)c(N=NC#N)cc1Cl
2. CC(=O)[O-].CC(=O)[O-].[Mn+2].c1ccc(/C(=N\Nc2ccccn2)c2ccccn2)cc1
3. COc1ccc2[nH]c3c4c(c5cc(C(C)(C)C)ccc5c3c2c1)C(=O)N(c1ccccc1)C4=O
4. CC1=CC(=O)C(C)(C2=NC(C)(C)CO2)c2ccccc21 (centres undefined)
5. Cc1cc(N(CCC#N)CCC#N)ccc1/C=C1/CN(N2C(=O)/C(=C/c3ccc(N(CCC#N)CCC#N)cc3C)N=C2c2ccccc2)C(c2ccccc2)=N1
6. CN(C)CCOc1cc2c(c3ccccc13)-c1ccccc1C2=O
7. c1cncc(C2c3[nH]c4ccccc4c3CCN2CCCN2CCCCC2)c1 (centres undefined)
8. COC1=CC(=O)c2ccc(C(C)C)cc2C1(C)C1=NC(C)(C)CO1 (centres undefined)

Reply |
["> 100 µM", "0.0212 µM", "> 100 µM", "> 100 µM", "> 100 µM", "2.65 µM", "> 100 µM", "> 100 µM"]

Ask | Determine from records and report TGI for N=c1nc(N)c2cc3c(N)nc(=N)c3cc12
Reply | 23.8 µM

---

System: 786-0 renal
Assay: NCI tumour cell line growth inhibition, 48 h
endpoint.name: TGI

Ask | Determine from records and report TGI for CC1=CC2=C(OCO1)C(=O)c1ccccc1C2=O
Reply | > 56.9 µM

Ask | Determine from records and report TGI for CCCCCCCCCOC(=S)NC
Reply | 33.5 µM

Ask | Determine from records and report TGI for Cc1nc(NC(=S)NC(=O)c2ccc(Cl)c(Cl)c2)sc1C(=O)/C=C/c1ccccc1[N+](=O)[O-]
Reply | 33.5 µM

Ask | Determine from records and report TGI for Cc1c(O)c(OC2OC(CO)C(O)C(O)C2O)cc2c1CC[C@@H]1C2(C)C(=O)C[C@]2(C)[C@@H]([C@@](C)(O)C(O)/C=C/C(C)(C)O)[C@H](O)C[C@@]12C (some centres undefined)
Reply | > 100 µM

Ask | Determine from records and report TGI for CCC1CCc2nc3sc(C(=O)Nc4ccccc4F)c(N)c3cc2C1 (centres undefined)
Reply | > 100 µM

Ask | Determine from records and report TGI for CCCCCCCCCCCCCCCCC1=CC(=O)C=C(OC)C1=O
Reply | > 100 µM

Ask | Determine from records and report TGI for COc1cc(C(=O)C/C(CCC(=O)Nc2ccccc2[N+](=O)[O-])=N\NC(=O)C(N)=O)ccc1O
Reply | > 100 µM

Ask | Determine from records and report TGI for O=C1CN(c2cccc(C(F)(F)F)c2)C(=O)CN1NCNN1CC(=O)N(c2cccc(C(F)(F)F)c2)CC1=O
Reply | > 100 µM

For every listed record, write down its TGI.
1. CCCCCCN(CCCCCC)C(=N)c1ccnc2ccccc12
2. O=C1C=C(Nc2ccccc2)c2ncccc2C1=O
3. CCOC(=O)/C(C#N)=C(/NS(=O)(=O)c1cc(C)c(Cl)cc1[S-])[n+]1ccc(N(C)C)cc1

Reply |
1. 12.5 µM
2. 3.05 µM
3. > 100 µM

For every listed record, write down its TGI.
1. CCOC(=O)C(NNS(=O)(=O)c1ccc(C)cc1)S(=O)(=O)C(F)(F)C(F)(F)C(F)(F)C(F)(F)F (centres undefined)
2. COc1cc(-c2c[nH]c3ccccc23)nc(-c2c[nH]c3ccccc23)n1
3. COc1cccc(-c2nn(-c3ccccc3)cc2-c2ccnc(NCCNS(=O)(=O)c3ccc(C(F)(F)F)cc3)c2)c1
4. Cc1ccc(SCC(OCn2cnc3c(N)ncnc32)[C@H](C)F)cc1 (some centres undefined)
5. Cc1ccc(-c2csc(N(C(=O)N3CCN(c4cc5c(cc4F)c(=O)c(C(=O)O)cn5C4CC4)CC3)c3ccccc3)n2)cc1
6. OCCN1CCN(CCO)Cc2ccccc2OCCOc2ccccc2C1
7. COc1ccc(NC(=O)C(=O)C(CC2C(=O)NC(=S)NC2=O)C(=O)c2ccc3ccccc3c2)c([N+](=O)[O-])c1 (centres undefined)
8. COC(=O)c1cc(C)ccc1/C=C1\Cc2cc(C)c(C)cc2C1=O

Reply |
1: > 100 µM; 2: 4.67 µM; 3: 21.4 µM; 4: > 100 µM; 5: 1.83 µM; 6: > 100 µM; 7: > 100 µM; 8: > 100 µM
